Test system: microorganisms
Assay: Peptide activities: targeting/binding, antimicrobial, growth or phenotype altering (Tables 7, 8);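 note: key B targeting or binding activity; M antimicrobial activity; G GROWTH or phenotype altering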
Assay type: cell-based
Conditions: peptides having multiple activities

# substance, target system, Activities
data = [
    ("PF-615: peptide having multiple activities (chain 1 FLNRFIFYIFTVKTKSALIKNLFLD; chain 2 FLNRFIFYIFTVKTKSALIKNLFLD; Peptide with targeting and/or antimicrobial activity)", "microorganisms", "G B"),
    ("PF-025: peptide having multiple activities (LLIIFRLWLELKWKNKK; Peptide with targeting and/or antimicrobial activity)", "microorganisms", "G B"),
    ("PF-397: peptide having multiple activities (chain 1 VEDLMEDLNA; chain 2 VEDLMEDLNA; Peptide with targeting and/or antimicrobial activity)", "microorganisms", "G B"),
    ("SLQSQLGPCLHDQRH [PF-448]", "microorganisms", "G B M"),
    ("PF-642: peptide having multiple activities (chain 1 FTTPMIGIPAGLLGGSYYLKRREEKGK; chain 2 FTTPMIGIPAGLLGGSYYLKRREEKGK; Peptide with targeting and/or antimicrobial activity)", "microorganisms", "G B"),
    ("FESKILNASKELDKEKKVNTALSFNSHQDFAKAYQNGKI [PF-606]", "microorganisms", "G M"),
    ("PF-595: peptide having multiple activities (chain 1 LQNKIYELLYIKERSKLCS; chain 2 LQNKIYELLYIKERSKLCS; Peptide with targeting and/or antimicrobial activity)", "microorganisms", "G B"),
    ("PF-454: peptide having multiple activities (MSVFVPVTNIFMFIMSPIFNVNLLHFKVYI; Peptide with targeting and/or antimicrobial activity)", "microorganisms", "G B"),
    ("PF-249: peptide having multiple activities (chain 1 INSRYKISF; chain 2 INSRYKISF; Peptide with targeting and/or antimicrobial activity)", "microorganisms", "G B"),
    ("PF-514: peptide having multiple activities (QRFYKLFYHIDLTNEQALKLFQVK; Peptide with targeting and/or antimicrobial activity)", "microorganisms", "G B"),
    ("EILNNNQVIKELTMKYKTQFESNLGGWTARARR [PF-580]", "microorganisms", "G B"),
]
